- Tested on: Acinetobacter baumannii
- condition parameters: Acinetobacter baumannii ATCC 19606; broth microdilution in CAMHB
Positions of bridges follow the written chain, without caps; N, C: chain ends. Non-standard residues stand in square brackets, D forms with d. Residues, ends and D or L forms follow the SMILES beside them. *: point of attachment. Benzoyl(3,5-Cl2) = O=C(c1cc(Cl)cc(Cl)c1)*; X3 = O=C(c1ccc(Cl)cc1Cl)*; Dab = NCC[C@H](N)C(=O)O; Abu = CC[C@H](N)C(=O)O; Dap = NC[C@H](N)C(=O)O; PhAc = O=C(Cc1ccccc1)*
// reported Minimum inhibitory concentration, Ab ATCC 19606 for each item listed
The response must be a number in µg/mL with no trailing unit.

Study these solved cases before continuing.
compound | numeric readout
CC(C)C[C@H]1NC(=O)[C@H](CCN)NC(=O)[C@@H](NC(=O)[C@H](CCN)NC(=O)[C@@H](NC(=O)[C@H](CCN)NC(=O)Cc2ccccc2)[C@@H](C)O)CCNC(=O)[C@H]([C@@H](C)O)NC(=O)[C@H](CCN)NC(=O)[C@H](CCN)NC(=O)[C@H]([C@@H](C)O)NC1=O [Compound 30] (PhAc-[Dab]T[Dab][Dab][Dab][dL]T[Dab][Dab]T; lactam 4-C) | 32
CC[C@@H]1NC(=O)[C@@H](CC(C)C)NC(=O)[C@H](CCN)NC(=O)[C@@H](NC(=O)[C@H](CN)NC(=O)[C@@H](NC(=O)[C@H](CCN)NC(=O)c2cc(Cl)cc(Cl)c2)[C@@H](C)O)CCNC(=O)[C@H]([C@@H](C)O)NC(=O)[C@H](CCN)NC(=O)[C@H](CCN)NC1=O [Compound 96] ({Benzoyl(3,5-Cl2)}-[Dab]T[Dap][Dab][Dab][dL][Abu][Dab][Dab]T; lactam 4-C) | 0.5

Please examine the following record next.
Quick check: Minimum inhibitory concentration, Ab ATCC 19606 of CC[C@@H]1NC(=O)[C@@H](CC(C)C)NC(=O)[C@H](CCN)NC(=O)[C@@H](NC(=O)[C@H](CN)NC(=O)[C@@H](NC(=O)[C@H](CCN)NC(=O)c2ccc(Cl)cc2Cl)[C@@H](C)O)CCNC(=O)[C@H]([C@@H](C)O)NC(=O)[C@H](CCN)NC(=O)[C@H](CCN)NC1=O [Compound 82] (X3-[Dab]T[Dap][Dab][Dab][dL][Abu][Dab][Dab]T; lactam 4-C) ?
0.5
